The reported measurements were obtained from patent US20220177583A1.

Molecular target: T1, human CLDN6, endogenously expressed on cancer cell lines (human, UniProt P56747 1-220)
T1 construct: also called Endogenous CLDN6+; CLDN6 on ARK2, OVCA429, UMUC4 cells
T1 sequence: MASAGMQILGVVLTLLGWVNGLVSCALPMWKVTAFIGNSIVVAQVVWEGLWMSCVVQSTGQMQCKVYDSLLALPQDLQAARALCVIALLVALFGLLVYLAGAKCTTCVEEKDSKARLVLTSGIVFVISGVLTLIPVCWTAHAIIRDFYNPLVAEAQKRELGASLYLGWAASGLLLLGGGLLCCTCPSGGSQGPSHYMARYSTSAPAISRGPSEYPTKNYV
Assay: FACS dose curve, labelled mAb, OVCA429 cells
RECORDED_ENDPOINT: pEC50
Keep it numeric: pEC50 is minus log10 of the concentration in mol/L.

For orientation, consider the following solved cases.
INSERT INTO results (binder, reading) VALUES
  ('AB18 (antibody, V domains shown, Full-length IgG (ExpiCHO)) VH: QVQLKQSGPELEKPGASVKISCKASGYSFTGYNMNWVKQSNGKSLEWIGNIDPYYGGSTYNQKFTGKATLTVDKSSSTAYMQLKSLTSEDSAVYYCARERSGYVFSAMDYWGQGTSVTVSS VL: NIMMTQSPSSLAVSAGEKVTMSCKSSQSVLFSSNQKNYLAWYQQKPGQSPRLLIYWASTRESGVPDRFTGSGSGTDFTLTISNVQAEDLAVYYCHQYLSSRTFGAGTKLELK', 5.61),
  ('AB2 (antibody, V domains shown, Full-length IgG (ExpiCHO)) VH: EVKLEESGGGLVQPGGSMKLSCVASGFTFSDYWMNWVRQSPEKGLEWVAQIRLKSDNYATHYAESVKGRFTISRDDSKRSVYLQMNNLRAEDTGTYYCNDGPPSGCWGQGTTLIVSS VL: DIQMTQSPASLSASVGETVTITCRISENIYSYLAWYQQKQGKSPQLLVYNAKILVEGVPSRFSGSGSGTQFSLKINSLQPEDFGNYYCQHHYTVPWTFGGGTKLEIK', 6.04),
  ('AB5 (antibody, V domains shown, Full-length IgG (ExpiCHO)) VH: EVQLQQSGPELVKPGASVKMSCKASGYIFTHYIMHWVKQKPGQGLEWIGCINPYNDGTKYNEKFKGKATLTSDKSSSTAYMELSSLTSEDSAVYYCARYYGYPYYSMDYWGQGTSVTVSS VL: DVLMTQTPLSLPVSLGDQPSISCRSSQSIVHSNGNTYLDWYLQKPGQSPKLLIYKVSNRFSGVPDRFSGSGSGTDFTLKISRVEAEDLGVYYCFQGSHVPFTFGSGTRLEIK', 8.30);

// moving on: another record for pEC50
Recorded pEC50 for AB12 (antibody, V domains shown, Full-length IgG (ExpiCHO)) VH: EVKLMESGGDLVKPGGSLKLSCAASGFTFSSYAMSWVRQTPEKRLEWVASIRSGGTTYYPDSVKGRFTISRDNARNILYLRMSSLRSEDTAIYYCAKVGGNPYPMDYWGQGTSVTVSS VL: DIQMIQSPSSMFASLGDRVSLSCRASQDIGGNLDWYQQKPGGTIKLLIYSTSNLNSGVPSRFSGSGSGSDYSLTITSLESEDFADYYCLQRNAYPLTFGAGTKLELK , please? 5.64
